# PROTOCOL NOTES: Isobutanol partitioning between solvent and water (Kd, butanol partition coefficient)
# CONDITION SUMMARY: aqueous 2.0 wt % isobutanol, half its mass of solvent
Here, each record is paired with measured mass partitioning coefficient data.
Reply with just the number.

COMPOUND	mass partitioning coefficient
Cc1ccc(C(C)C)cc1O [Carvacrol, carvacrol]	15.5
CCCCN(CCCC)C(=O)N(CCCC)CCCC [Tetrabutylurea, tetrabutylurea]	7.35
CCN(CC)C(=O)c1cccc(C)c1 [DEET, diethyl m-toluamide]	9.2

Next compound, please.
Report measured mass partitioning coefficient; entry is CC(C)CC(C)CC(O)CC(C)C (stereo not shown) [Isododecanol]
5.42
